Test system: HOP-62 NSCLC
MEASUREMENT NOTES: NCI-60 one-dose screen, 48 h
STATED CONDITIONS: 10 µM unless noted
About 83,000 compounds went through this panel and 20% of them were active in at least one assay; those are over-represented in the sample as a whole. The source made the active and inactive calls. How the source made its calls: active means growth percent below 10; inactive means the rest.
Labels: active, inactive

COMPOUND	TESTED ON	CLASS ASSIGNMENT
CSc1nccc(-c2c(-c3ccc(F)c(OCc4ccc(F)cc4)c3)nc3sccn23)n1	HOP-62 NSCLC	inactive
COc1cc(C2CC(c3ccc(Nc4nc(NCCO)nc(Nc5ccc(Cl)cc5)n4)cc3)=Nc3c(N)nc(N)nc3N2)cc(OC)c1OC (stereo not given)	HOP-62 NSCLC	inactive
C=CCn1c(SCC(=O)Nc2cccc(C(=O)/C=C/c3ccc(OC)c(OC)c3)c2)nc2ccccc2c1=O	HOP-62 NSCLC	inactive
Cc1nn(-c2ccc(Br)cc2)c2nc(CCl)[nH]c(=O)c12	HOP-62 NSCLC	inactive
CCN1C(=O)N(CC)C2C1NN=C1SC(c3ccccc3)=CC(=O)N12 (stereo not given)	HOP-62 NSCLC	inactive
COc1cc2c3c(n(CCCN4CCCC4)c(=O)c2cc1OC)-c1cc2c(cc1C3=O)OCO2	HOP-62 NSCLC	active
Clc1ccc(-c2csc(Nc3cccc(Nc4csc(-c5ccc(Cl)cc5)n4)c3)n2)cc1	HOP-62 NSCLC	inactive
COc1cc([C@H]2OC[C@H]3[C@@H]2CO[C@@H]3c2ccc(O)c(OC)c2)ccc1O	HOP-62 NSCLC	inactive
CCCCCc1ccc(S(=O)(=O)N(C(C)=O)c2cccc(-c3csc(N(CCN4CCN(C)CC4)C(C)=O)n3)c2)cc1	HOP-62 NSCLC	inactive
CCCC(=O)NC(c1cccnc1)c1cc(C(C)=O)c2cccnc2c1O (stereo not given)	HOP-62 NSCLC	inactive

---

System: HCT-116 colon
MEASUREMENT NOTES: NCI-60 one-dose screen, 48 h (100 = growth as untreated, 0 = no growth, -100 = all killed)
STATED CONDITIONS: 10 µM unless noted
The panel holds about 83,000 compounds, 20% with a hit somewhere; the sample as a whole holds those more often.

COMPOUND	TESTED ON	growth (%)
CS(=O)c1nccc(-c2c(-c3ccc(F)c(OCCc4ccc(F)cc4)c3)nc3sccn23)n1 (stereo unspecified)	HCT-116 colon	-59.9
Clc1ccc(-c2csc(Nc3cccc(Nc4csc(-c5ccc(Cl)cc5)n4)c3)n2)cc1	HCT-116 colon	67.2
Cc1cc2nc(C(Cl)Cl)nc(-c3ccco3)n2n1	HCT-116 colon	74
CCNC(=NCCCN(C)C)N/C(N)=N/c1nc2ccccc2s1	HCT-116 colon	76.4
O=C1[C@H]2Cc3c([nH]c4ccccc34)[C@H](c3ccc(Cl)cc3)N2C(=O)CN1C1CCN(Cc2c(Cl)cccc2Cl)CC1	HCT-116 colon	37.8
O=C(/C=C/c1cn(-c2ccccc2)nc1-c1ccc(Cl)cc1)c1cc2ccccc2oc1=O	HCT-116 colon	25.4

---

System: TK-10 renal
MEASUREMENT NOTES: NCI-60 one-dose screen, 48 h (100 = growth as untreated, 0 = no growth, -100 = all killed)
STATED CONDITIONS: 10 µM unless noted
Compounds without any hit were thinned out: in the full panel of roughly 83,000, 20% have a hit.
PROPERTY MEASURED: growth (%)

MOLECULE	TESTED ON	U	NUMERIC READOUT
CCOC(=O)C1=C(C)Nc2nc3ccccc3n2C1c1ccccc1 (stereo not given)	TK-10 renal	%	114
ClC(Cl)c1nc(-c2cccs2)n2nc(-c3ccccc3)cc2n1	TK-10 renal	%	-10.8
Cc1ccc(-c2cc3nc(C(Cl)Cl)nc(-c4ccccc4)n3n2)cc1	TK-10 renal	%	108
CCOC(=O)c1c(NC(=O)c2ccc(F)cc2F)sc2c1CCC(=O)C2	TK-10 renal	%	124
COc1cc(/C=C/C(=O)c2ccc(NC(=O)CSc3nnc(-c4ccc5nc(-c6ccccc6)[nH]c5c4)o3)cc2)cc(OC)c1OC	TK-10 renal	%	137
CCCCCCCCNC(=O)c1ccc(Cn2c(CCCC)nc3c(N)nc4ccccc4c32)cc1	TK-10 renal	%	78.8
O=C(C[n+]1ccnc2ccccc21)c1ccc(O)c(O)c1	TK-10 renal	%	43.1
Nc1ccc(-c2nnc(SCc3ccc(O)c4ncccc34)n2-c2ccccc2)cc1	TK-10 renal	%	25.3
CCOC(=O)/C(F)=C/C1CC1CCc1cccc(C(F)(F)F)c1 (stereo not given)	TK-10 renal	%	99.5
COc1cc(CNC(=O)Cc2ccccc2[N+](=O)[O-])ccc1OCC(=O)NO	TK-10 renal	%	122
Cc1nc(-c2cc3ccccc3c(N3CCN(C)CC3)n2)cs1	TK-10 renal	%	98.2
NS(=O)(=O)Oc1ccc2nc(Nc3ccc(F)c(F)c3)ccc2c1	TK-10 renal	%	118
CN1C(=O)N(C)C2Nn3c(s/c(=C\c4ccccn4)c3=O)=NC21 (stereo not given)	TK-10 renal	%	111
O=C(/C=C/c1cn(-c2ccccc2)nc1-c1ccc(Cl)cc1)c1cc2ccccc2oc1=O	TK-10 renal	%	113
Cc1ccc(Cc2cnc(NC(=O)/C(C#N)=C/c3ccc(-c4ccc(Cl)cc4)o3)s2)cc1	TK-10 renal	%	120
CCCC(=O)NC(c1cccnc1)c1ccc2c(C)ccnc2c1O (stereo not given)	TK-10 renal	%	33.3
O=S(=O)(Nc1cc(Cl)cc(Cl)c1)c1ccc(-c2cnc(C3CC3)o2)cc1	TK-10 renal	%	76.1
COc1ccc(-c2cc(-c3cccc4ccccc34)n3c(n2)nc2ccccc23)cc1	TK-10 renal	%	43
COc1cc(/C=N/n2cnc3oc(-c4ccccc4)cc3c2=N)cc(CN2CCN(C)CC2)c1O	TK-10 renal	%	113
Cn1c2ccc(Br)cc2c2c3c(c4c5cc(F)ccc5oc4c21)C(=O)N(O)C3=O	TK-10 renal	%	142
